# experiment_description: Toxicity testing: cell viability, Alamar Blue HS
# condition: human, MRC-5 cells (uninfected)
quantity: CC50 at 72 h

So what does the record say about CC50 at 72 h for "Cc1c(CNCc2cc(C3CC3)nn2C)cccc1OCc1ccc(C(=O)N2CCN(S(C)(=O)=O)CC2)cc1" ? > 5 µM

Also "COc1c(CNC(=O)c2cc(C3CC3)nn2C)cccc1OCc1ccc(C(=O)N2CCN(S(C)(=O)=O)CC2)cc1" , if possible. > 5 µM

Next entry: "COc1c(CNC(=O)c2cc(C3CC3)nn2C)cccc1OCc1ccc(S(=O)(=O)N2CCN(C)CC2)cc1" > 5 µM

Moving on to the next compound: "COc1c(CNC(=O)c2cc(C3CC3)nn2C)cccc1OCc1ccc(S(=O)(=O)N2CCN(S(C)(=O)=O)CC2)cc1" > 5 µM

What about "CC(=O)N1CCN(Cc2ccc(COc3cccc(CNC(=O)c4cc(C5CC5)nn4C)c3F)cc2)CC1" ? > 5 µM

# iterate: "COc1c(CNC(=O)c2cc(C3CC3)nn2C)cccc1N(C)Cc1ccc(C(=O)N2CCN(S(C)(=O)=O)CC2)cc1" > 5 µM

Now give it for "CN1CCN(Cc2ccc(COc3ccc(CNC(=O)c4cc(C5CC5)nn4C)cc3Cl)cc2)CC1" too. > 5 µM

Next record, please: "COc1c(CNC(=O)c2cc(C3CC3)nn2C)cccc1OCc1ccc(COC(=O)N2CCN(S(=O)(=O)CC(C)C)CC2)cc1" > 5 µM

Similarly, "COc1c(CNC(=O)c2cc(C3CC3)nn2C)cccc1OCc1ccc(OC(=O)N2CCN(S(C)(=O)=O)CC2)cc1" ? > 5 µM

Would you mind doing COc1c(CNC(=O)c2cc(C3CC3)nn2C)cccc1OCc1ccc(C(=O)N2CCN(S(=O)(=O)CC(C)C)CC2C)cc1 (stereo not shown) as well? > 5 µM
